Value source: PubChem BioAssay (Tox21)

# Experimental Protocol: qHTS assay to identify small molecule agonists of the endoplasmic reticulum stress response signaling pathway (AID 1159516); as to activation: % is scaled to controls: 0 for no effect and ±100 for the full control effect
# Condition: ESRE-bla HeLa, ER stress beta-lactamase reporter, 5 h; series mostly up to 61 µM
Results filed as inconclusive are left out. Active and inactive are the calls of the source. Calls follow the shape of the dose curve; as a rule, active = well fitted activation curve with a large enough effect in the signal ratio in the repeat runs (not every such curve was filed as active); inconclusive = weak or mixed curves, or effect the other way; inactive = flat fitted curve, though single readings scatter; the % refers to the signal ratio.
# output must be one of 1.0 (active), 0.0 (inactive)

Examples from the recorded data:
compound="FC(F)OC(F)(F)C(F)Cl (centres undefined)" class_name=0.0
compound=C[C@]12C=CC3=C4CCC(=O)C=C4CC[C@H]3[C@@H]1CC[C@@H]2O class_name=0.0
compound=N#CC(C#N)=Cc1ccc(O)c(O)c1 class_name=0.0
compound=c1ccc2c(c1)-c1cccc3cccc-2c13 class_name=1.0
compound=O=C(O)C(F)(F)C(F)(F)C(F)(F)C(F)(F)C(F)(F)F class_name=0.0
compound=Clc1ccc2ccccc2c1 class_name=0.0

Please indicate how the test categorized CN(C1CCCCC1)C1CCCCC1 .
0.0

Please indicate how the test categorized CC(C)CCON=O .
0.0

Please indicate how the test categorized NCCc1cc(O)c(O)cc1O .
1.0

Please indicate how the test categorized CCOP(=O)(O)C(N)=O .
0.0

Please indicate how the test categorized COC1=CC(=O)O[C@@H](/C=C/c2ccc3c(c2)OCO3)C1 .
0.0

Please indicate how the test categorized O=C=NC1CCCCC1 .
0.0

Please indicate how the test categorized CC(C)(C)NCC(O)c1ccccc1Cl (centres undefined) .
0.0
